Here the recorded normalised response is given for each entry.
Test system: BT-474
Experiment: normalised response (% of control), CellTiter-Glo; higher = more viable cells (100 = DMSO, 0 = benzethonium chloride kill control)
Conditions: incubation time: 72 h
Respond numerically; units are % and should not be typed.

The examples below pair each entry with its known result.
O=S(=O)(c1cccc2cnccc12)N1CCCNCC1 [Fasudil] (5 nM) :: 97.4
Cc1ccc(Nc2nccc(N(C)c3ccc4c(C)n(C)nc4c3)n2)cc1S(N)(=O)=O [Pazopanib] (10 nM) :: 98.2
CNC(=O)c1cc(Oc2ccc(NC(=O)Nc3ccc(Cl)c(C(F)(F)F)c3)cc2)ccn1 [Sorafenib] (0.1 nM) :: 105
CC/C(=C(\c1ccc(O)cc1)c1ccc(OCCN(C)C)cc1)c1ccccc1 [4-hydroxytamoxifen] (1000 nM) :: 101
CO[C@@H](C(=O)N1Cc2[nH]nc(NC(=O)c3ccc(N4CCN(C)CC4)cc3)c2C1)c1ccccc1 [Danusertib] (1 nM) :: 101

Consider the record given below.
Specify normalised response for CC/C(=C(\c1ccc(O)cc1)c1ccc(OCCN(C)C)cc1)c1ccccc1 [4-hydroxytamoxifen] (10 nM) , system BT-474.
96.7

---

System: MDA-MB-468
Assay: drug sensitivity score (DSS), CellTiter-Glo (DSS (AUC-based score)); higher = stronger drug effect (viability inhibition or cytotoxicity); extreme values may be limits of the assay
Conditions: incubation time: 72 h
parameterMeasured: drug sensitivity score

CC(=O)OC[C@H]1O[C@@H]([S-])[C@H](OC(C)=O)[C@@H](OC(C)=O)[C@@H]1OC(C)=O.CCP(CC)CC.[Au+] [Auranofin] :: 14.9

Specify drug sensitivity score for Cc1c(CN2CCN(C(=O)[C@H](C)O)CC2)sc2c(N3CCOCC3)nc(-c3cnc(N)nc3)nc12 [GDC-0980] , system MDA-MB-468.
10.1

Specify drug sensitivity score for COc1nc(N)nc2c1ncn2[C@@H]1O[C@H](CO)[C@@H](O)[C@@H]1O [Nelarabine] , system MDA-MB-468.
0

Specify drug sensitivity score for CCN(CC)CCNC(=O)c1c(C)[nH]c(/C=C2\C(=O)Nc3ccc(F)cc32)c1C [Sunitinib] , system MDA-MB-468.
0

Specify drug sensitivity score for CC[C@@]1(O)C(=O)OCc2c1cc1n(c2=O)Cc2cc3c(CN(C)C)c(O)ccc3nc2-1 [Topotecan] , system MDA-MB-468.
20.8

---

Here the recorded normalised response is given for each entry.
Test system: MFM-223
Test: normalised response (% of control), CellTiter-Glo; higher = more viable cells (100 = DMSO, 0 = benzethonium chloride kill control)
Settings: incubation time: 72 h
Respond numerically; units are % and should not be typed.

The examples below pair each entry with its known result.
CO[C@@H](C(=O)N1Cc2[nH]nc(NC(=O)c3ccc(N4CCN(C)CC4)cc3)c2C1)c1ccccc1 [Danusertib] (1 nM) :: 94.8
CC/C(=C(\c1ccc(O)cc1)c1ccc(OCCN(C)C)cc1)c1ccccc1 [4-hydroxytamoxifen] (1000 nM) :: 95.6
CO[C@@H](C(=O)N1Cc2[nH]nc(NC(=O)c3ccc(N4CCN(C)CC4)cc3)c2C1)c1ccccc1 [Danusertib] (10 nM) :: 103
CC/C(=C(\c1ccc(O)cc1)c1ccc(OCCN(C)C)cc1)c1ccccc1 [4-hydroxytamoxifen] (10 nM) :: 104
C[C@]12O[C@H](C[C@]1(O)CO)n1c3ccccc3c3c4c(c5c6ccccc6n2c5c31)CNC4=O [Lestaurtinib] (0.1 nM) :: 96.7
C[C@]12O[C@H](C[C@]1(O)CO)n1c3ccccc3c3c4c(c5c6ccccc6n2c5c31)CNC4=O [Lestaurtinib] (1 nM) :: 101
CCCCC/C=C/C=C1/C(=O)C=C[C@@H]1C/C=C\CCCC(=O)O [15D-PGJ2] (0.08 nM) :: 103
CCC/C=C/C=C/C(=O)O[C@H]1/C(=C/C(=O)OC)C[C@H]2C[C@H]([C@@H](C)O)OC(=O)C[C@H](O)C[C@@H]3C[C@H](OC(C)=O)C(C)(C)[C@](O)(C[C@@H]4C/C(=C/C(=O)OC)C[C@H](/C=C/C(C)(C)[C@]1(O)O2)O4)O3 [Bryostatin 1] (0.01 nM) :: 105

Respond only with normalised response recorded for O=C(Nc1c[nH]nc1-c1nc2ccc(CN3CCOCC3)cc2[nH]1)NC1CC1 [AT9283] (100 nM)
89.2

Respond only with normalised response recorded for CC(=O)OC[C@H]1O[C@@H]([S-])[C@H](OC(C)=O)[C@@H](OC(C)=O)[C@@H]1OC(C)=O.CCP(CC)CC.[Au+] [Auranofin] (250 nM)
98.5

---

Here the recorded normalised viability is given for each entry.
System: BT-474
Assay: normalised viability (% of control), CellTiter-Blue; higher = more viable cells (about 100 = DMSO control)
Settings: 1000 nM; incubation time: 72 h
Respond numerically; units are % and should not be typed.

The examples below pair each entry with its known result.
Nc1ccccc1NC(=O)c1ccc(CNc2nccc(-c3cccnc3)n2)cc1 :: 96.8
CC[C@@]1(O)C(=O)OCc2c1cc1n(c2=O)Cc2cc3c(CN(C)C)c(O)ccc3nc2-1 :: 77.9
Cc1c(CN2CCN(C(=O)[C@H](C)O)CC2)sc2c(N3CCOCC3)nc(-c3cnc(N)nc3)nc12 :: 22.1

Consider the record given below.
Respond only with normalised viability recorded for COc1ccc(-c2cc3c(C)nc(N)nc3n([C@H]3CC[C@H](OCCO)CC3)c2=O)cn1
14.1

---

Here the recorded normalised viability is given for each entry.
Test system: CAL-120
Experiment: normalised viability (% of control), CellTiter-Blue; higher = more viable cells (about 100 = DMSO control)
Settings: 1000 nM; incubation time: 72 h
Respond numerically; units are % and should not be typed.

Specify normalised viability for Cc1cccc(-c2nn3c(c2-c2ccnc4ccc(C(N)=O)cc24)CCC3)n1 , system CAL-120.
106

Specify normalised viability for C[C@]12O[C@H](C[C@]1(O)CO)n1c3ccccc3c3c4c(c5c6ccccc6n2c5c31)CNC4=O , system CAL-120.
47.5

Specify normalised viability for O=C1c2c(O)ccc(O)c2C(=O)c2c(NCCNCCO)ccc(NCCNCCO)c21 , system CAL-120.
17.3

Specify normalised viability for Cc1c(CN2CCN(C(=O)[C@H](C)O)CC2)sc2c(N3CCOCC3)nc(-c3cnc(N)nc3)nc12 , system CAL-120.
24.1

---

Here the recorded EC50, CellTiter-Glo is given for each entry.
System: MDA-MB-436
Conditions: 72 h
Respond numerically; units are nM and should not be typed.

The examples below pair each entry with its known result.
CO[C@@H](C(=O)N1Cc2[nH]nc(NC(=O)c3ccc(N4CCN(C)CC4)cc3)c2C1)c1ccccc1 :: 1090
Nc1ccccc1NC(=O)c1ccc(CNc2nccc(-c3cccnc3)n2)cc1 :: 4130

Consider the record given below.
Specify EC50, CellTiter-Glo for Cn1cc(CNCC2CCN(c3ncc(C(=O)NO)cn3)CC2)c2ccccc21 , system MDA-MB-436.
50.9

---

Tested on: MDA-MB-453
Assay: normalised response (% of control), CellTiter-Glo; higher = more viable cells (100 = DMSO, 0 = benzethonium chloride kill control)
Conditions: incubation time: 72 h
parameterMeasured: normalised response

CO[C@@H](C(=O)N1Cc2[nH]nc(NC(=O)c3ccc(N4CCN(C)CC4)cc3)c2C1)c1ccccc1 [Danusertib] (1000 nM) :: 156%

Respond only with normalised response recorded for Cc1cccc(-c2nn3c(c2-c2ccnc4ccc(C(N)=O)cc24)CCC3)n1 [Galunisertib] (100 nM)
105%

Respond only with normalised response recorded for CC(=O)OC[C@H]1O[C@@H]([S-])[C@H](OC(C)=O)[C@@H](OC(C)=O)[C@@H]1OC(C)=O.CCP(CC)CC.[Au+] [Auranofin] (0.25 nM)
103%

Respond only with normalised response recorded for CCC/C=C/C=C/C(=O)O[C@H]1/C(=C/C(=O)OC)C[C@H]2C[C@H]([C@@H](C)O)OC(=O)C[C@H](O)C[C@@H]3C[C@H](OC(C)=O)C(C)(C)[C@](O)(C[C@@H]4C/C(=C/C(=O)OC)C[C@H](/C=C/C(C)(C)[C@]1(O)O2)O4)O3 [Bryostatin 1] (0.1 nM)
97.7%

Respond only with normalised response recorded for Cc1ccc(Nc2nccc(N(C)c3ccc4c(C)n(C)nc4c3)n2)cc1S(N)(=O)=O [Pazopanib] (1000 nM)
113%

Respond only with normalised response recorded for Cc1c(CN2CCN(C(=O)[C@H](C)O)CC2)sc2c(N3CCOCC3)nc(-c3cnc(N)nc3)nc12 [GDC-0980] (10 nM)
97.5%

---

Tested on: CAL-120
Assay: normalised response (% of control), CellTiter-Glo; higher = more viable cells (100 = DMSO, 0 = benzethonium chloride kill control)
Conditions: incubation time: 72 h
Here the recorded normalised response is given for each entry.
Respond numerically; units are % and should not be typed.

CNC(=O)c1cc(Oc2ccc(NC(=O)Nc3ccc(Cl)c(C(F)(F)F)c3)cc2)ccn1 [Sorafenib] (10 nM) :: 112

Respond only with normalised response recorded for Cn1cc(CNCC2CCN(c3ncc(C(=O)NO)cn3)CC2)c2ccccc21 [Quisinostat] (10 nM)
86.2

Respond only with normalised response recorded for COc1cc(CCc2cc(NC(=O)c3ccc(N4CC(C)NC(C)C4)cc3)n[nH]2)cc(OC)c1 (stereo not given) [AZD4547] (10 nM)
95.8

Respond only with normalised response recorded for CC(=O)OC[C@H]1O[C@@H]([S-])[C@H](OC(C)=O)[C@@H](OC(C)=O)[C@@H]1OC(C)=O.CCP(CC)CC.[Au+] [Auranofin] (25 nM)
100

Respond only with normalised response recorded for O=C(Nc1c[nH]nc1-c1nc2ccc(CN3CCOCC3)cc2[nH]1)NC1CC1 [AT9283] (10 nM)
103

Respond only with normalised response recorded for Nc1cccc2c1CN(C1CCC(=O)NC1=O)C2=O (stereo not given) [Lenalidomide] (100 nM)
93.3

Respond only with normalised response recorded for CS(=O)(=O)N1CCN(Cc2cc3nc(-c4cccc5[nH]ncc45)nc(N4CCOCC4)c3s2)CC1 [Pictilisib] (100 nM)
89.6

Respond only with normalised response recorded for C[C@]12O[C@H](C[C@]1(O)CO)n1c3ccccc3c3c4c(c5c6ccccc6n2c5c31)CNC4=O [Lestaurtinib] (10 nM)
92.2

Respond only with normalised response recorded for C[C@]12C=CC(=O)C=C1CC[C@@H]1[C@@H]2[C@@H](O)C[C@@]2(C)[C@H]1CC[C@]2(O)C(=O)CO [Prednisolone] (100 nM)
87.4

Respond only with normalised response recorded for CC/C(=C(\c1ccc(O)cc1)c1ccc(OCCN(C)C)cc1)c1ccccc1 [4-hydroxytamoxifen] (100 nM)
105
